Origin of the recorded values: patent US8895756B2

# assay summary: physchem
# particulars: alcohol/water solution with mannitol 25.5 mg/mL, 5 °C, aqueous with cosolvent or surfactant or cyclodextrin, thermodynamic from solid
attribute measured: solubility at 24 h

## Input Provide one value: measured solubility at 24 h of Cl.Cn1c(CCCC(=O)O)nc2cc(N(CCCl)CCCl)ccc21 [bendamustine]
## Output > 15 mg/mL

* * *

# assay summary: physchem
# particulars: alcohol/water solution with mannitol 25.5 mg/mL, 5 °C, aqueous with cosolvent or surfactant or cyclodextrin, thermodynamic from solid
attribute measured: solubility at 3 h

## Input Provide one value: measured solubility at 3 h of Cl.Cn1c(CCCC(=O)O)nc2cc(N(CCCl)CCCl)ccc21
## Output > 15 mg/mL
